system: HCT116 MTAP null cells; assay: HCT116 MTAP null cell line proliferation (CellTiter-Glo cell viability, 6 days); type: cell-based; conditions: HCT116-MTAP null, 144 h, read-out: HCT-116 MTAP null IC50
quantityKind: IC50 (nM)
Report the value in nM with no unit label.

IN: Output IC50 of Nc1nc2cnc(C(=O)N3CC[S+]([O-])C[C@@H]3c3ccc(C(F)(F)F)cc3)cc2c2c1COC2 (stereo partly shown) [Example 623]
OUT: 843

----------
Below, each entry is listed alongside its reported pIC50.
tested on: HCT116 MTAP null cells; assay: HCT116 MTAP null cell line proliferation (CellTiter-Glo cell viability, 6 days); type: cell-based; settings: HCT116-MTAP null, 144 h, HCT116 MTAP null cells, 6 days of treatment, CellTiter-Glo cell viability; read-out: HCT-116 MTAP null IC50
Hey, just a heads up that pIC50 is the negative log base 10 of the concentration in molar.

[
  {
    "molecule": "C[C@@H]1COC[C@H](c2ccc(OCC(F)(F)F)nn2)N1C(=O)c1cc2c3c(c(N)nc2cn1)COC3",
    "pIC50": 7.49
  },
  {
    "molecule": "CCOc1ccc([C@@H]2COCCN2C(=O)c2ccc3nc(N)c4c(c3c2)CO[C@@H]4C)nn1 (racemic)",
    "pIC50": 6.01
  },
  {
    "molecule": "C[C@H]1OCc2c1c(N)nc1ccc(C(=O)N3C[C@@H](c4ccccc4)[C@@H]4CCC[C@@H]43)cc21",
    "pIC50": 6.80
  },
  {
    "molecule": "Nc1nc2ccc(C(=O)N3CCOC[C@@H]3c3ccc(C(F)(F)F)cn3)cc2c2c1COC2 (single isomer, unassigned)",
    "pIC50": 6.66
  }
]

IN: Output pIC50 of Nc1nc2cnc(C(=O)N3CCOC[C@@H]3c3ccc(C(F)(F)F)cc3)cc2c2c1COC2 (single isomer, unassigned)
OUT: 6.97

IN: Output pIC50 of Cn1ncc2c(N)nc3cc(F)c(C(=O)N4CCOC[C@@H]4c4ccc(F)cc4)cc3c21
OUT: 7.51

IN: Output pIC50 of C[C@H]1OCc2c1c(N)nc1ccc(C(=O)N3[C@@H](C)COC[C@H]3c3ccc(OC(F)(F)F)cc3F)cc21 (racemic)
OUT: 7.30

IN: Output pIC50 of C[C@H]1OCc2c1c(N)nc1ccc(C(=O)N3C[C@@H](c4ccc(F)cc4)C(C)(C)C3)cc21 (single isomer, unassigned)
OUT: 6.23

IN: Output pIC50 of CC1(C)OCc2c1c(N)nc1ccc(C(=O)N3CCOC[C@@H]3c3ccc(OC(F)(F)F)cc3)cc21
OUT: 6.10

IN: Output pIC50 of C[C@H]1COC[C@@H](c2ccc(C(F)(F)F)nc2)N1C(=O)c1cc2c3c(c(N)nc2cc1F)COC3 (racemic)
OUT: 7.40

IN: Output pIC50 of Nc1nc2ccc(C(=O)N3CCOC[C@@H]3c3ccc(OC(F)(F)F)nc3)cc2c2c1COC2 (single isomer, unassigned)
OUT: 6.84

IN: Output pIC50 of C[C@H]1COC[C@@H](c2ccc(OC(F)(F)F)cn2)N1C(=O)c1cc2c3c(c(N)nc2cc1F)COC3 (racemic)
OUT: 7.82
